measurement label: melting point

Reference set (2 entries):
[[record]]
smiles_input = "C=Cc1ccc2c(c1)OCCOCCOCCOCCO2"
measurement_label = "melting point"
result = "35 to 43 °C"

[[record]]
smiles_input = "Cc1cccc(C)c1C(N)=O"
measurement_label = "melting point"
result = "136 to 138 °C"


Dear colleague, I am looking for the recorded melting point of the following molecule: `Nc1ccc(-n2cnc(Cl)c2Cl)cc1`
104 to 105 °C

Dear colleague, I am looking for the recorded melting point of the following molecule: `S=C(Oc1ccccn1)Oc1ccccn1`
96 to 99 °C

* * *

measurement label: melting point

[[record]]
compound = "CC(C)(C)NC(=O)NN"
measurement_label = "melting point"
result = "119 to 120 °C"


Dear colleague, I am looking for the recorded melting point of the following compound: `COc1ccccc1NC(=S)NN`
151 to 153 °C

Dear colleague, I am looking for the recorded melting point of the following compound: `CC(C)(C)OC(=O)N1CCC(c2nc(C=O)cs2)CC1`
91 to 93 °C

Dear colleague, I am looking for the recorded melting point of the following compound: `OCc1ccc(-n2cccc2)cc1`
102 to 105 °C

Dear colleague, I am looking for the recorded melting point of the following compound: `Cc1cnc(N)c([N+](=O)[O-])c1`
190 to 195 °C

Dear colleague, I am looking for the recorded melting point of the following compound: CCCCCCCCCCCCC1CCC1=O (stereo not drawn)
28 to 31 °C

Dear colleague, I am looking for the recorded melting point of the following compound: `COc1ccc(OCc2ccccc2)cc1`
71 to 73 °C

Dear colleague, I am looking for the recorded melting point of the following compound: `OCc1ccc(Cn2cncn2)cc1`
68 to 70 °C

* * *

List of melting point values.

[[record]]
smiles_input = "Clc1ccc(C=NNc2ncnc3c2cnn3-c2ccccc2)cc1"
measurement_label = "melting point"
result = "280 to 282 °C"


Dear colleague, I am looking for the recorded melting point of the following compound: `O=c1c2ccccc2[nH]c(=S)n1-c1ccc(F)cc1`
337 to 339 °C

Dear colleague, I am looking for the recorded melting point of the following compound: `O=[N+]([O-])c1ccsc1Cl`
51 to 52 °C

Dear colleague, I am looking for the recorded melting point of the following compound: `Nc1ccc2c(c1)OCO2`
38 to 43 °C

Dear colleague, I am looking for the recorded melting point of the following compound: `COC1=C(C(C)(C)C(C)C)C(=O)C(=O)c2ccccc21`
93.3 to 93.6 °C

Dear colleague, I am looking for the recorded melting point of the following compound: `O=C(C(=S)Nc1ccc(Cl)cc1)c1ccccc1`
222 to 223 °C

Dear colleague, I am looking for the recorded melting point of the following compound: `Nc1ccc(N=Nc2ccc(N=Nc3ccc(N)cc3)cc2)cc1`
247 °C

Dear colleague, I am looking for the recorded melting point of the following compound: `Cc1ccc(C(c2ccc(C)o2)c2cc(Cl)ccc2O)o1`
85 °C

Dear colleague, I am looking for the recorded melting point of the following compound: `Nc1ccncc1[N+](=O)[O-]`
203 °C

Dear colleague, I am looking for the recorded melting point of the following compound: `O=[N+]([O-])c1ccc(-c2ccno2)cc1`
172 to 174 °C

Dear colleague, I am looking for the recorded melting point of the following compound: `Cc1nn(Cc2nnc(S)o2)c(C)c1Br`
194 to 195 °C

Dear colleague, I am looking for the recorded melting point of the following compound: `COc1cc([N+](=O)[O-])c(OC)cc1Cl`
144 to 145 °C

Dear colleague, I am looking for the recorded melting point of the following compound: `O=C(Cl)c1cc2cc(Br)ccc2s1`
99 to 102 °C

* * *

measurement label: melting point

[[record]]
compound = "NC(=S)c1cccnc1"
measurement_label = "melting point"
result = "185 to 190 °C"

[[record]]
compound = "N#C/C(=N\\Nc1cccc([N+](=O)[O-])c1)c1nc2ccccc2[nH]1"
measurement_label = "melting point"
result = "306 to 308 °C"

[[record]]
compound = "Clc1ccc2nc(N3CCCNCC3)sc2c1"
measurement_label = "melting point"
result = "103 to 105 °C"

[[record]]
compound = "CC(C)=NNC(=O)c1cc(C)on1"
measurement_label = "melting point"
result = "244 to 246 °C"

[[record]]
compound = "COc1ccc(CC(=O)O)cc1O"
measurement_label = "melting point"
result = "128 to 130 °C"

[[record]]
compound = "O=C(CCl)Oc1ccc([N+](=O)[O-])cc1"
measurement_label = "melting point"
result = "73 to 75 °C"

[[record]]
compound = "O=C(O)C1CCCN(C(=O)OCc2ccccc2)C1 (stereo not given)"
measurement_label = "melting point"
result = "90 to 94 °C"

[[record]]
compound = "Cc1nn(C)c(N2CCOCC2)c1N"
measurement_label = "melting point"
result = "156 to 157 °C"


Dear colleague, I am looking for the recorded melting point of the following compound: O=[N+]([O-])c1ccc(C(O)C(O)CO)cc1 (stereo not given)
93 to 97 °C

Dear colleague, I am looking for the recorded melting point of the following compound: `Cc1onc(-c2c(Cl)cccc2Cl)c1C=O`
100 to 103 °C

Dear colleague, I am looking for the recorded melting point of the following compound: `O=C(O)C=Cc1ccc(Br)cc1F`
219 to 223 °C

Dear colleague, I am looking for the recorded melting point of the following compound: `CCCCCCCCCCCCCCCCCCC(=O)NC`
91 to 94 °C

Dear colleague, I am looking for the recorded melting point of the following compound: `NCc1ccccc1`
10 °C

Dear colleague, I am looking for the recorded melting point of the following compound: `CCCCCCCCCCCC(=O)N1CC(=O)NC(=O)C1`
114 to 116 °C

Dear colleague, I am looking for the recorded melting point of the following compound: `CSc1ccccc1C#N`
36 °C

Dear colleague, I am looking for the recorded melting point of the following compound: `CON(C(=O)c1cc(C)oc1C)C1CCCCC1`
33 °C

Dear colleague, I am looking for the recorded melting point of the following compound: `COc1c(C)cc(N)cc1C`
64 °C

Dear colleague, I am looking for the recorded melting point of the following compound: `COc1ccc([N+](=O)[O-])cc1C(=O)O`
157 °C

Dear colleague, I am looking for the recorded melting point of the following compound: `COc1ccc(C(=O)C(C#N)=C(SC)SC)cc1`
60 to 62 °C

Dear colleague, I am looking for the recorded melting point of the following compound: `Oc1ccc(-c2ccccc2)cc1Cl`
77 °C

* * *

Peptide text beside a SMILES is read from it.
List of melting point values.

[[record]]
compound = "C[C@H](N)C(=O)N[C@@H](C)C(=O)O (H-Ala-Ala-OH)"
result = "286 to 288 °C"


Dear colleague, I am looking for the recorded melting point of the following compound: `O=C(Cl)c1ccc(-c2cccs2)s1`
73.3 to 74.4 °C

Dear colleague, I am looking for the recorded melting point of the following compound: `CCOC(=O)C(C#N)=NNc1cccc([N+](=O)[O-])c1`
155 to 156 °C

Dear colleague, I am looking for the recorded melting point of the following compound: `O=S(=O)(Cl)Cc1ccc(C(F)(F)F)cc1`
104 to 106 °C

Dear colleague, I am looking for the recorded melting point of the following compound: `O=C1c2ccccc2-c2ccc(Br)cc21`
143 to 149 °C

Dear colleague, I am looking for the recorded melting point of the following compound: `Cc1nccn1C`
37 to 39 °C

Dear colleague, I am looking for the recorded melting point of the following compound: `O=C(O)c1cccc2cc[nH]c12`
202 to 204 °C

* * *

List of melting point values.

[[record]]
compound = "O=C(NCc1ccc(S(=O)(=O)Cl)s1)c1ccccc1"
measurement_label = "melting point"
result = "123 to 125 °C"

[[record]]
compound = "Cn1c(=S)[nH]c2ccccc2c1=O"
measurement_label = "melting point"
result = "271 to 272 °C"

[[record]]
compound = "Cc1nc(-c2cccc(CBr)c2)no1"
measurement_label = "melting point"
result = "71 to 72 °C"

[[record]]
compound = "CC(C)(C)OC(=O)N[C@@H](CCC(=O)O)C(=O)O"
measurement_label = "melting point"
result = "110 to 113 °C"

[[record]]
compound = "CCOC(=O)N=C(c1ccc[nH]1)N1CCOCC1"
measurement_label = "melting point"
result = "147 to 149 °C"


Lab note: next compound to report on.
Dear colleague, I am looking for the recorded melting point of the following compound: `Cc1c(S(=O)(=O)c2ccc(Cl)cc2)csc1C(=O)O`
252 to 256 °C

* * *

List of melting point values.

Reference set (5 entries):
[[record]]
compound = "Cc1cc(Br)cc(Cl)c1O"
result = "45 to 47 °C"

[[record]]
compound = "O=C1c2ccccc2C(=O)c2c([N+](=O)[O-])ccc(O)c21"
result = "273 to 275 °C"

[[record]]
compound = "Nc1c(Br)cc(Br)cc1C=O"
result = "136 to 139 °C"

[[record]]
compound = "COC(=O)c1scc(S(=O)(=O)C(C)C)c1S(=O)(=O)Cl"
result = "128 to 129 °C"

[[record]]
compound = "CCOC(=O)c1sc(SC)c(S(=O)(=O)C(C)C)c1N"
result = "143 to 146 °C"


Dear colleague, I am looking for the recorded melting point of the following compound: COC1C=CC2=CCN3CCC4=C(CC(=O)OC4)C23C1 (centres undefined)
99.5 °C

Dear colleague, I am looking for the recorded melting point of the following compound: `CC(=O)Nc1cc([N+](=O)[O-])c(F)cc1F`
146 to 148 °C

Dear colleague, I am looking for the recorded melting point of the following compound: `COC(=O)C(=Cc1ccc(O)cc1)C(=O)OC`
155 to 160 °C
